- TGT: T1, sIL-6R (soluble IL-6 receptor; SBH Sciences) (human, UniProt P08887 20-365)
- T1 construct: also called human IL-6R
- T1 sequence: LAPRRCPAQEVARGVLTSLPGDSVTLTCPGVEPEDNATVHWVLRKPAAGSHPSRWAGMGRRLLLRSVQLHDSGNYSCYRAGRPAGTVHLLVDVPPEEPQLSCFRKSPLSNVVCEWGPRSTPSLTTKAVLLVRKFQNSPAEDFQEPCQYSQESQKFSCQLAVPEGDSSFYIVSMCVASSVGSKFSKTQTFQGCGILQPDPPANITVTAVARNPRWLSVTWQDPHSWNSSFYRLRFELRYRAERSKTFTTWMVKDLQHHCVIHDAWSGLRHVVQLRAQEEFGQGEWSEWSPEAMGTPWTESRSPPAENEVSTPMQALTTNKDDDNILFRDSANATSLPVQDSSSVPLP
- PROTOCOL DESCRIPTION: SPR (BIAcore 3000), antibody on chip, sIL-6R analyte, pH 6.0
MEASUREMENT KIND: kon (M⁻¹ s⁻¹)

>>> recorded_number("206# (antibody, human IgG1, kappa, V domains shown, also called Sample # 206) VH: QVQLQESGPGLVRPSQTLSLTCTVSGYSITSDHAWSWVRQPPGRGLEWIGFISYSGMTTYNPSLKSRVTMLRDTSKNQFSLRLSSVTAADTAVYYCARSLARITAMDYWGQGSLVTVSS VL: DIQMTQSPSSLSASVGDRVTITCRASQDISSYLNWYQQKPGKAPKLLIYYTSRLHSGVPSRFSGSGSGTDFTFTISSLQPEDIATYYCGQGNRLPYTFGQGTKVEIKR")
412000
>>> recorded_number("Tocilizumab (antibody, human IgG1, kappa, V domains shown, also called 25; 25(control)) VH: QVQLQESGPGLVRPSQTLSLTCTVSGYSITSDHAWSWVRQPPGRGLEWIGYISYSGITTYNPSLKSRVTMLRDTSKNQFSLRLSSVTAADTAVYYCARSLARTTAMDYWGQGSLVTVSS VL: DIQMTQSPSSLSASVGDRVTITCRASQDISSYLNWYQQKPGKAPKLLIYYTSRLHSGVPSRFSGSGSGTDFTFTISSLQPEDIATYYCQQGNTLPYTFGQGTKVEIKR")
283000
>>> recorded_number("202# (antibody, human IgG1, kappa, V domains shown) VH: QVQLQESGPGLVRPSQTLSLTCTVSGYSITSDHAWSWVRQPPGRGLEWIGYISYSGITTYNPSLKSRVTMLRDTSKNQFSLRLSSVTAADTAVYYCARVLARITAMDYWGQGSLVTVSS VL: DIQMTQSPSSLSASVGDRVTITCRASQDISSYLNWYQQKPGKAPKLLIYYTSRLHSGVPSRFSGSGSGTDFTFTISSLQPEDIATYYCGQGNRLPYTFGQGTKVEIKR")
284000
